- assay-remarks: Comparison of PK in DIO mice and lean mice
- Assay type: in vivo, mouse
- cond: C57BL/6N, mouse, plasma, po, 10 mg/kg, Lean mice, non-fasted, 10 mpk
- Experimental: Comparison of PK in DIO Mice and Lean Mice The PK characteristics of Compound 20AA were examined in non-fasted lean C57BL/6N and DIO mice (Taconic). Compound 20AA was orally administered to both groups at 10 mg/kg by oral gavage and plasma concentration of the compound was determined as described in Example 59. […]
endpoint-label: Tmax (h)
Report as a plain number; the unit h is understood.

Find the measured Tmax of Cc1cnccc1-c1cccc(C(C)(C)N(CCCC(=O)NCCS(=O)(=O)O)S(=O)(=O)c2ccccc2C(F)(F)F)c1 [Compound 20AA] and report it. 1

* * *

- subject-of-test: mouse TGR5 receptor (Mus musculus, UniProt Q80SS6)
- Construct: expressed in transfected cells; host or cells: HEK293-EBNA (293 c18, ATCC CRL10852), Hygromycin B selection
- Sequence (Q80SS6 whole entry): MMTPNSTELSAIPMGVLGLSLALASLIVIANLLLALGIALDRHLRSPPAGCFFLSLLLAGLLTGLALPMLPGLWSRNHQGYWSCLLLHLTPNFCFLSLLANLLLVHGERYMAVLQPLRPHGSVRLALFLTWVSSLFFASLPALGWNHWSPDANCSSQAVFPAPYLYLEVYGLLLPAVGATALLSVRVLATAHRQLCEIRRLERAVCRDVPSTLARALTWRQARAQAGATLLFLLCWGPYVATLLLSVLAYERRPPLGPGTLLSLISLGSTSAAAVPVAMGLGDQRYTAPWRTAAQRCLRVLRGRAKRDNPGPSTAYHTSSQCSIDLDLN
- assay-remarks: Mouse TGR5 cAMP production assay (HTRF, Cisbio cAMP HiRange)
- Type: cell-based
- cond: HEK293-EBNA cells overexpressing mouse TGR5, HTRF cAMP HiRange; coded A-D
pEC50: −log10 of the molar value.
endpoint-label: pEC50

Below, 3 compounds whose answers are already recorded.
Cc1cnccc1-c1cccc([C@H](C)N(CCCC(=O)NCCNC(=O)NCCC(=O)O)S(=O)(=O)c2cccc(Cl)c2C)c1    6.00 to 7.00
Cc1cnccc1-c1cccc([C@H](C)N(CCCC(=O)NCCS(=O)(=O)NCC(=O)O)S(=O)(=O)c2cccc(Cl)c2C)c1 [Compound 21AN]    > 7.00
Cc1cnccc1-c1cccc([C@H](C)N(CCCCNC(=O)NCCS(=O)(=O)O)S(=O)(=O)c2ccccc2C(F)(F)F)c1 [Compound 28AB]    6.00 to 7.00

Supply recorded pEC50 for `COc1cnccc1-c1cccc(C(C)(C)NS(=O)(=O)c2ccc(Cl)cc2Cl)c1` here. > 7.00

Return the recorded pEC50 value; entry: Cc1cnccc1-c1cccc([C@H](C)N(CCOCC(=O)O)S(=O)(=O)c2cccc(Cl)c2C)c1 [Compound 16AM] 6.00 to 7.00

Identify pEC50 associated with the compound `Cc1cnccc1-c1cccc([C@H](C)N(CCCCN)S(=O)(=O)c2ccccc2C(F)(F)F)c1` 4.52 to 6.00

Read off the recorded pEC50 for CCc1cnccc1-c1cccc([C@H](C)N(CCCC(=O)NC[C@@H](O)[C@H](O)[C@@H](O)[C@@H](O)CO)S(=O)(=O)c2cccc(Cl)c2C)c1 [Compound 20AN] > 7.00

Read the entry Cc1cnccc1-c1cccc(C2CN(C(=O)CS(=O)(=O)O)CCN2S(=O)(=O)c2ccccc2C(F)(F)F)c1 (stereo not drawn) [Compound 49AG] and write its reported pEC50. > 7.00

* * *

Entries annotated with measured EC50
- subject-of-test: human TGR5 receptor (Homo sapiens, UniProt Q8TDU6)
- Sequence (Q8TDU6 whole entry): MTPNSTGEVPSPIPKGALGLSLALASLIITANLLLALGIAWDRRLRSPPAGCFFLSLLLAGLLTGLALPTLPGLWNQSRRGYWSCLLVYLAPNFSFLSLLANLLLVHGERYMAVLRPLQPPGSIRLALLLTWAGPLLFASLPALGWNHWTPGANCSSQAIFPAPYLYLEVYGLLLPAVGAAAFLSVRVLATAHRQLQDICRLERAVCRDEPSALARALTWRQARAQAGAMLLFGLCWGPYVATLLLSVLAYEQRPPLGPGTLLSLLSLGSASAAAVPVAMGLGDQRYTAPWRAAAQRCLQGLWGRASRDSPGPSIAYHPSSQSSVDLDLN
- assay-remarks: Human TGR5 cAMP production assay
- cond: human TGR5, luminescent cAMP assay; coded A-D; read-out: Human TGR5 Lum. cAMP Activity (EC50)
- Protocol: Human TGR5 cAMP Production Assay We evaluated the Compounds of the present invention for their ability to induce cAMP production using CHO-K1 cells overexpressing the human TGR5 receptor. […] Test compounds were serially diluted (half-log dilutions) in DMSO and then further diluted 1:50 in PBS, 10 mM HEPES buffer. […] Luminescent signal was then detected using the Viewlux instrument (Perkin-Elmer, Waltham, Mass.). […]

Cc1cnccc1-c1cccc([C@H](C)NS(=O)(=O)c2ccccc2N)c1 [Compound 10AA]    100 to 999 nM

Provide measured EC50 value, entry: Cc1cnccc1-c1cccc(C2(N(CCCC(=O)NCCS(=O)(=O)O)S(=O)(=O)c3cccc(Cl)c3C)COC2)c1 [Compound 20BN] < 100 nM

Kindly indicate its recorded EC50. Item: CCc1cnccc1-c1cccc(C2CN(C(=O)CCCC(=O)O)CCN2S(=O)(=O)c2cccc(Cl)c2C)c1 (centres unmarked) [Compound 46AA] < 100 nM

Output measured EC50 for this item: Cc1cnccc1-c1cccc(C(C)(C)N(CCCNS(=O)(=O)CCNC(=O)NCCCS(=O)(=O)O)S(=O)(=O)c2cccc(Cl)c2C)c1 [Compound 28AE] < 100 nM

Supply reported EC50 belonging to this molecule: Cc1ccccc1S(=O)(=O)N(CCCC(=O)NCCS(=O)(=O)O)[C@@H](C)c1cccc(-c2ccncc2O)c1 [Compound 22AA] 100 to 999 nM

Report EC50 for `Cc1cnccc1-c1cccc([C@H](C)N(CCCCN)S(=O)(=O)c2ccccc2C(F)(F)F)c1` < 100 nM

Return the recorded EC50 value; entry: CCOC(=O)CCCN(C(C)(C)c1cccc(-c2ccncc2C)c1)S(=O)(=O)c1ccccc1C(F)(F)F [Compound 14A] < 100 nM

Give reported EC50 value for Cc1cnccc1-c1cccc(C(C)(C)N(CCCC(=O)NCC(=O)O)S(=O)(=O)c2cccc(Cl)c2C)c1 [Compound 21AB] < 100 nM

Fill in reported EC50 for this entry: CCc1cnccc1-c1cccc(C2CN(C(=O)COCC(=O)O)CCN2S(=O)(=O)c2cccc(Cl)c2C)c1 (centres unmarked) [Compound 46AB] < 100 nM

Indicate its recorded EC50; the molecule in question is `CC(C)(NS(=O)(=O)c1ccccc1C(F)(F)F)c1cccc(-c2ccc3[nH]cnc3c2)c1` 1000 to 30000 nM

Note down EC50 recorded for CCc1cnccc1-c1cccc([C@H](C)N(CCCC(=O)NCC[N+](C)(C)C)S(=O)(=O)c2cccc(Cl)c2C)c1 [Compound 27AE] < 100 nM

Tell me EC50 reported for Cc1cnccc1-c1cccc(C(C)(C)N(CCCC(=O)NCCNc2ncc(C(=O)O)cn2)S(=O)(=O)c2cccc(Cl)c2C)c1 [Compound 27AA] < 100 nM

Supply EC50 value. Item: Cc1cnccc1-c1cccc([C@H](C)N(CCCC(=O)NS(=O)(=O)CCC(=O)O)S(=O)(=O)c2cccc(Cl)c2C)c1 [Compound 20BW] 100 to 999 nM

Identify the reported EC50 for the following entry. Cc1cnccc1-c1cccc([C@H](C)N(CCCC(=O)O)S(=O)(=O)c2ccccc2C)c1 [Compound 16AD] 100 to 999 nM
